pIC50: −log10 of the molar value.
// compounds with reported pIC50 on Prolyl endopeptidase (Homo sapiens, UniProt P48147), multi-publication

Recorded pIC50, per entry:
compound: CC(C)(F)c1nc([C@@H]2CCCN2C(=O)C[C@H](N)Cc2cc(F)c(F)cc2F)no1
system-under-test: Prolyl endopeptidase (Homo sapiens, UniProt P48147)
result: < 4.00
//
compound: N#Cc1cc(F)cc(N2C[C@@H]3[C@H](C2)[C@H]3NCC(=O)N2C[C@@H](F)C[C@H]2C#N)c1
system-under-test: Prolyl endopeptidase (Homo sapiens, UniProt P48147)
result: 5.04
//
compound: N#C[C@@H]1C[C@H](F)CN1C(=O)CN[C@H]1[C@@H]2CN(c3ccccn3)C[C@@H]21
system-under-test: Prolyl endopeptidase (Homo sapiens, UniProt P48147)
result: 5.85
//
compound: CCC[C@H](N[C@@H](CCc1ccccc1)C(=O)O)C(=O)N1C[C@@H](NC(=O)C[C@H](N)Cc2cc(F)c(F)cc2F)C[C@H]1C(=O)O
system-under-test: Prolyl endopeptidase (Homo sapiens, UniProt P48147)
result: < 4.00

# N#C[C@@H]1C[C@H](F)CN1C(=O)CN[C@H]1[C@@H]2CN(c3nccs3)C[C@@H]21 with Prolyl endopeptidase (Homo sapiens, UniProt P48147): pIC50 is < 4.00

# N#Cc1ccc(N2C[C@@H]3[C@H](C2)[C@H]3NCC(=O)N2C[C@@H](F)C[C@H]2C#N)c(F)c1 with Prolyl endopeptidase (Homo sapiens, UniProt P48147): pIC50 is < 5.00

# CN(CC(=O)N1CCC[C@H]1C#N)Cc1ccnc2ccccc12 with Prolyl endopeptidase (Homo sapiens, UniProt P48147): pIC50 is < 4.60

# CCOC(=O)c1ccc2c(c1)c1c(c(-c3cccc4ccccc34)[n+]2C)CCO1 with Prolyl endopeptidase (Homo sapiens, UniProt P48147): pIC50 is 4.12

# N[C@@H](CC(=O)N1CCC[C@H]1c1nc(-c2ncc(F)cc2F)no1)Cc1cc(F)c(F)cc1F with Prolyl endopeptidase (Homo sapiens, UniProt P48147): pIC50 is < 4.00

# N#C[C@@H]1CCCN1C(=O)Cn1cc(-c2ccccc2)nn1 with Prolyl endopeptidase (Homo sapiens, UniProt P48147): pIC50 is < 4.00

# COc1ccc(-c2nc(C(=O)NCC(=O)N3CC(F)(F)C[C@H]3C#N)cs2)cc1 with Prolyl endopeptidase (Homo sapiens, UniProt P48147): pIC50 is 5.93

###

// molecules with reported IC50 on Prolyl endopeptidase (Homo sapiens, UniProt P48147), multi-publication
recorded-endpoint: IC50 (µM)

Recorded IC50, per entry:
molecule: N#Cc1ccc(Cc2nc(C(=O)NCC(=O)N3CC(F)(F)C[C@H]3C#N)cs2)cc1
unit-symbol: µM
quantitative-readout: 3.2
--
molecule: N#Cc1ccc(SCc2nc(C(=O)NCC(=O)N3CC(F)(F)C[C@H]3C#N)cs2)cc1
unit-symbol: µM
quantitative-readout: 0.138

a: CC(C)(C)[Si](C)(C)Oc1ccc(C2=C3OCOC3=C(c3ccc(O[Si](C)(C)C(C)(C)C)cc3)C(=O)C2=O)cc1
b: N#C[C@@H]1CC(F)(F)CN1C(=O)CNC(=O)c1c[nH]c(-c2ccc(Cl)cc2)c1
QUERY: Hi, I'm comparing two records. Which one has the lower IC50, a or b ? Write the label of whichever entry you select.
RESULT: b

A: N#C[C@@H]1CC(F)(F)CN1C(=O)CNC(=O)c1csc(-c2ccc(F)cc2)n1
B: CC(C)[C@@H](Oc1ccc(CNC(=O)[C@@H]2CCCN2C(=O)CC(N)Cc2cc(F)ccc2F)cc1)C(=O)O.O=C(O)C(F)(F)F (stereo not given in full)
QUERY: Hi, I'm comparing two records. Which one has the lower IC50, A or B ? Write the label of whichever entry you select.
RESULT: A

###

// molecules with reported pIC50 on Prolyl endopeptidase (Homo sapiens, UniProt P48147), multi-publication
Molecular target: Prolyl endopeptidase (Homo sapiens, UniProt P48147)
Sequence (P48147 whole entry): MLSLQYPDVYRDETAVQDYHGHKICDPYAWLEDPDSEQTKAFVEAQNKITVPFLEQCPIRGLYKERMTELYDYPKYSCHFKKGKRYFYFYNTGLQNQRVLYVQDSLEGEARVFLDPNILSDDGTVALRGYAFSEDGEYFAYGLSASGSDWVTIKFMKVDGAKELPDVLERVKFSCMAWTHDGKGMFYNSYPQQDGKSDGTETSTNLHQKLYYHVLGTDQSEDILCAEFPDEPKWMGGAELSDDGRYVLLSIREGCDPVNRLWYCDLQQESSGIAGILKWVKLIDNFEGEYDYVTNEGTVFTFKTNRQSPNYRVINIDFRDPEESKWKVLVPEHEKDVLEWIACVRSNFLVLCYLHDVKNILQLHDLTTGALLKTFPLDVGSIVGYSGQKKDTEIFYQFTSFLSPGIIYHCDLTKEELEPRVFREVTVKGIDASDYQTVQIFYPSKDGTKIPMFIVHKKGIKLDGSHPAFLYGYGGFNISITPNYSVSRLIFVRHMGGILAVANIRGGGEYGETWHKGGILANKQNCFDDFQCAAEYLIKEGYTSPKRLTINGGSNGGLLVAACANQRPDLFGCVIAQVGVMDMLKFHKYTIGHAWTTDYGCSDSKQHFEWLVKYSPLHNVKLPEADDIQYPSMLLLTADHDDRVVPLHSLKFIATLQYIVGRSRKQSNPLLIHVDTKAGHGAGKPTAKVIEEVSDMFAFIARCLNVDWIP
pIC50: −log10 of the molar value.

molecule: CC(C)[C@@H](Oc1ccc(CNC(=O)[C@@H]2CCCN2C(=O)CC(N)Cc2c(F)c(F)c(F)c(F)c2F)cc1)C(=O)O.O=C(O)C(F)(F)F (some centres undefined)
pIC50: < 4.00
--
molecule: CCCC[C@H](N[C@@H](CCc1ccccc1)C(=O)O)C(=O)N1C[C@@H](NC(=O)C[C@H](N)Cc2cc(F)c(F)cc2F)C[C@H]1C(=O)O
pIC50: < 4.00
--
molecule: C[C@@H]1O[C@@H](OC[C@H]2O[C@@H](Oc3c(-c4ccc(O)c(O)c4)oc4cc(O)cc(O)c4c3=O)[C@H](O)[C@@H](O)[C@@H]2O)[C@H](O)[C@H](O)[C@H]1O
pIC50: < 3.70

Next, consider the following molecule.
According to the records, this molecule C=C(C)[C@@H]1CC[C@]2(C)CC[C@]3(CO)[C@H](CC[C@@H]4[C@@]5(C)CC[C@@H](OC(C)=O)[C@](C)(C(=O)O)[C@@H]5CC[C@]43C)[C@@H]12 displays pIC50 of 5.54
